B1: ZNF263 (parent)
chain: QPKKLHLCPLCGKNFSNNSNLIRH

Variants of: B1
procedure.details: protein stability index of a GFP-peptide fusion (GPS, HEK-293T) (PSI 1-6); higher = more stable;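 also: lentivirally expressed fusions sorted by FACS into six bins by GFP to DsRed ratio, PSI derived from sequencing read proportions per bin multiplied by bin number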
assay.context: c terminus: a fixed tail appended
# Lookup of reported protein stability index keyed by entry

[
  {
    "changes": "L10Y",
    "protein stability index": 2.53
  },
  {
    "changes": "L10H",
    "protein stability index": 3.56
  },
  {
    "changes": "L21Q",
    "protein stability index": 2.38
  },
  {
    "changes": "L10D",
    "protein stability index": 3.78
  }
]
